These entries and their values trace back to the supplement of paper PMC6757056.

Recorded measurements of normalized RNA/DNA level with ligand (log10), one per entry
B1: library; a variant is named by its letters at N, in order (parent)
chain: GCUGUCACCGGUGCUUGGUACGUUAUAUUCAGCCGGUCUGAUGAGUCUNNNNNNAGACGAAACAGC

Variants of: B1
Test: normalized RNA/DNA level with ligand (relative to sTRSVctl = 100) (log10 (% of sTRSVctl)); HEK293T overexpressing SLC46A1; ligand concentration (+) RNA-Seq: 6 mM; higher = less ribozyme self-cleavage, higher mRNA level
Details: with (6R,S)-folinic acid; ligand present: yes
Give the value as a plain number.

Example entries begin here.
CCCUAG : 2.04
AUUCGU : 1.97
CGUGGC : 2
AUAGGC : 2.05

For `UCCGGA` , write its normalized RNA/DNA level with ligand (log10).
2.02

Please report the measured normalized RNA/DNA level with ligand (log10) for `UAUAAC`
2

Specify measured normalized RNA/DNA level with ligand (log10) for `CACCCU` .
2.04

Name the recorded normalized RNA/DNA level with ligand (log10) of the variant listed here: `ACCUUU`
2.02

Consider the variant `AGAGCG` and give its recorded normalized RNA/DNA level with ligand (log10).
1.97

Tell me measured normalized RNA/DNA level with ligand (log10) for `GUAGAA` please.
2

Name the recorded normalized RNA/DNA level with ligand (log10) of the variant listed here: `CGUUUA`
2.01

Identify measured normalized RNA/DNA level with ligand (log10) corresponding to `AGCUUU`
2.02

State its normalized RNA/DNA level with ligand (log10) for this variant: `AGGAUA`
2

Give me measured normalized RNA/DNA level with ligand (log10), please, for this variant: `UUACGU`
2.01

Given `CAUAGG` , respond with its normalized RNA/DNA level with ligand (log10).
2
